biological target: Polyunsaturated fatty acid 5-lipoxygenase (Homo sapiens); experiment: Inhibition of 5-LOX (unknown origin) using arachidonic acid as substrate at 100 uM after 5 mins by EIA
Sequence (P09917 whole entry): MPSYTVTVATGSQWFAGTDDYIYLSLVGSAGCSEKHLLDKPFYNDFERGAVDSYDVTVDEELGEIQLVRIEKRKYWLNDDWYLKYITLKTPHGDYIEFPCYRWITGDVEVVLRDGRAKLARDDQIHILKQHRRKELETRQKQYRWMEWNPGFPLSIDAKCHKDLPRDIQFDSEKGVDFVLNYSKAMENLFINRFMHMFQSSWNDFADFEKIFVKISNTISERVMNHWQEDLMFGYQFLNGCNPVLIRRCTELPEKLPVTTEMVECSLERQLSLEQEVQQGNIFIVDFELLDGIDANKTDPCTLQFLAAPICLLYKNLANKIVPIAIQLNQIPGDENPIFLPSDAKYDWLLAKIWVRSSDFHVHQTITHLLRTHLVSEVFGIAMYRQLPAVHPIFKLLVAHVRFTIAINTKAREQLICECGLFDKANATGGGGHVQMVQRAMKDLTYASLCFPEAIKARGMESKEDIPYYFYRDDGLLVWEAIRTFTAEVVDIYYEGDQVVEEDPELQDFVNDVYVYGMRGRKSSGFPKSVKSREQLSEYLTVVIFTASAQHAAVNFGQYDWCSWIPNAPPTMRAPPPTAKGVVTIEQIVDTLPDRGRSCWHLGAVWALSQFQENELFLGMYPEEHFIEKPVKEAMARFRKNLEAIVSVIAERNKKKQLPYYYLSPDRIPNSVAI
# reported inhibition; entries follow
I only need the number, in %, no unit after it.

>>> reported_value("Cc1ccc(S(=O)(=O)n2cc(C(=O)C(=O)NCC(=O)O)c3ccccc32)cc1")
97.5

Any idea what its inhibition is? The compound is COC(=O)CNC(=O)C(=O)c1c[nH]c2ccccc12
70

Any idea what its inhibition is? The compound is COC(=O)CC[C@@H](NC(=O)C(=O)c1c[nH]c2ccccc12)C(=O)OC
55

---

# reported inhibition; entries follow
biological target: Polyunsaturated fatty acid 5-lipoxygenase (Homo sapiens); assay: Inhibition of 5-LOX (unknown origin) using arachidonic acid as substrate at 1 uM after 5 mins by EIA
I only need the number, in %, no unit after it.

Field: example entries. Status: answers known.
>>> reported_value("Cc1ccc(S(=O)(=O)n2cc(C(=O)C(=O)N3CCC[C@@H]3C(=O)O)c3ccccc32)cc1")
53.5
>>> reported_value("COC(=O)[C@@H](Cc1cnc[nH]1)NC(=O)C(=O)c1c[nH]c2ccccc12")
40.8
>>> reported_value("COC(=O)CNC(=O)C(=O)c1cn(S(=O)(=O)c2ccc(C)cc2)c2ccccc12")
67.7
>>> reported_value("COC(=O)[C@@H](Cc1c[nH]c2ccccc12)NC(=O)C(=O)c1c[nH]c2ccccc12")
43.4
>>> reported_value("Cc1ccc(S(=O)(=O)n2cc(C(=O)C(=O)N[C@H](CCC(=O)O)C(=O)O)c3ccccc32)cc1")
59.5

Continue with the molecule presented below.
Lookup: inhibition / Polyunsaturated fatty acid 5-lipoxygenase (Homo sapiens) / COC(=O)CC[C@@H](NC(=O)C(=O)c1cn(S(=O)(=O)c2ccc(C)cc2)c2ccccc12)C(=O)OC
51.8

---

target: Polyunsaturated fatty acid 5-lipoxygenase (Homo sapiens); test: Inhibition of 5-LOX (unknown origin) using arachidonic acid as substrate after 5 mins by EIA in presence of pig liver esterase
Rule: IC50 below 100 nM gives YES, anything at or above gives NO.

Quick check: IC50 of COC(=O)CC[C@@H](NC(=O)C(=O)c1cn(S(=O)(=O)c2ccc(C)cc2)c2ccccc12)C(=O)OC under 100 nM?
NO

Quick check: IC50 of COC(=O)[C@H]1CCCN1C(=O)C(=O)c1cn(S(=O)(=O)c2ccc(C)cc2)c2ccccc12 under 100 nM?
NO

---

test: Octanol-water partition coefficient, log P of the compound; format: physicochemical
metric-name: logP

Field: example entries. Status: answers known.
>>> reported_value("COC(=O)[C@@H](Cc1c[nH]c2ccccc12)NC(=O)C(=O)c1cn(S(=O)(=O)c2ccc(C)cc2)c2ccccc12")
2.34
>>> reported_value("COC(=O)[C@H]1CCCN1C(=O)C(=O)c1cn(S(=O)(=O)c2ccc(C)cc2)c2ccccc12")
2.19
>>> reported_value("COC(=O)CNC(=O)C(=O)c1cn(S(=O)(=O)c2ccc(C)cc2)c2ccccc12")
2.21
>>> reported_value("COC(=O)[C@@H](Cc1cnc[nH]1)NC(=O)C(=O)c1cn(S(=O)(=O)c2ccc(C)cc2)c2ccccc12")
1.98

Continue with the molecule presented below.
Any idea what its logP is? The molecule is COC(=O)CC[C@@H](NC(=O)C(=O)c1cn(S(=O)(=O)c2ccc(C)cc2)c2ccccc12)C(=O)OC
2.12

Values were extracted from ChEMBL document CHEMBL3112507.
